Target: FtsA (Escherichia coli)
Sequence (P0ABH0 1-420): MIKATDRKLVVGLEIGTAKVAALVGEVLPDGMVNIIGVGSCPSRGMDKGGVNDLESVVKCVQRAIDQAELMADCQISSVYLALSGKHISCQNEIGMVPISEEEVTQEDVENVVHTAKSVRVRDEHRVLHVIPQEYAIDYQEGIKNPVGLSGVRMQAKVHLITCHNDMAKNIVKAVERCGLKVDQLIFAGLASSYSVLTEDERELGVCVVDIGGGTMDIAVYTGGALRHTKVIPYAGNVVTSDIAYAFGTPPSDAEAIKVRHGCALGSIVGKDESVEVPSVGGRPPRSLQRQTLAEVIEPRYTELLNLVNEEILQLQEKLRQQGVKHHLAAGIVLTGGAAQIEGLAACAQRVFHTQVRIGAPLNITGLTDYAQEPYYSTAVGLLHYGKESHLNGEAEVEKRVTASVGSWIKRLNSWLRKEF
measurement.name: Kd (µM)

> print(dat)
                                smiles.code                   target  experimental.result
1  CNc1ccccc1C(=O)O[C@H]1[C@@H](O)[C@H](n2cnc3c(N)ncnc32)O[C@@H]1CO[P@@](=O)(O)O[P@](=O)(O)OP(=O)(O)O  FtsA (Escherichia coli)                 26.2
